The following compounds are listed with their measured EC50 values.
target: hFXR (Homo sapiens)
assay procedure: In Vitro FXR Assay (TK): hFXR/hRXR TK-ECRE-luc reporter in transfected CV-1 cells
test conditions: CV-1 cells transfected with hFXR, hRXR, 18 hrs incubation, luminescence, maximum efficacy <25% of Fexarmine control also classified as ‘+’

# annotated cases, reported EC50 shown
| compound | experimental result |
| --- | --- |
| COc1ccc([C@H]2CC[C@H](CN(c3cccc(C#Cc4ncns4)c3)C(=O)[C@H]3CC[C@H](O)CC3)CC2)cc1C [Compound 11] | ≤ 500 nM |
| COc1ccc([C@H]2CC[C@H](CN(c3cc(-c4coc(C5CC5)n4)ccn3)C(=O)[C@H]3CC[C@H](O)CC3)CC2)cc1C#N [Compound 10.12] | ≤ 500 nM |
| COc1ccc([C@H]2CC[C@H](CN(c3cccc(-c4ccsn4)c3)C(=O)[C@H]3CC[C@H](O)CC3)CC2)cc1C [Compound 2.07] | 500 to 1000 nM |
| COc1ccc([C@H]2CC[C@H](CN(c3cccc(-c4nc(C)no4)c3)C(=O)[C@H]3CC[C@H](O)CC3)CC2)cc1C [Compound 9.02] | 500 to 1000 nM |
| COc1ccc([C@H]2CC[C@H](CN(c3cccc(-c4nc(C)co4)c3)C(=O)[C@H]3CC[C@H](O)CC3)CC2)cc1C [Compound 9.03] | ≥ 1000 nM |
| COc1ccc([C@H]2CC[C@H](CN(c3cccc(-c4ncsn4)c3)C(=O)[C@H]3CC[C@H](O)CC3)CC2)cc1C [Compound 9.07] | 500 to 1000 nM |
| COc1ccc([C@H]2CC[C@H](CN(c3cccc(-c4cc(C5CC5)ns4)c3)C(=O)[C@H]3CC[C@H](O)CC3)CC2)nc1C [Compound 10.08] | ≤ 500 nM |
| COc1ccc([C@H]2CC[C@H](CN(c3cc(-c4coc(C5CC5)n4)ccn3)C(=O)[C@H]3CC[C@H](O)CC3)CC2)nc1C#N [Compound 10.19] | ≤ 500 nM |
| COc1ccc([C@H]2CC[C@H](CN(c3cccc(-c4nnn(C)n4)c3)C(=O)[C@H]3CC[C@H](O)CC3)CC2)cc1C [Compound 5] | ≥ 1000 nM |
| COc1ccc([C@H]2CC[C@H](CN(c3cccc(C#Cc4nnc[nH]4)c3)C(=O)[C@H]3CC[C@H](O)CC3)CC2)cc1C [Compound 14] | ≤ 500 nM |

Which EC50 reading was recorded for the compound COc1ccc([C@H]2CC[C@H](CN(c3cccc(-c4nnc(C)s4)c3)C(=O)[C@H]3CC[C@H](O)CC3)CC2)cc1C [Compound 2.04] ?
≥ 1000 nM

Which EC50 reading was recorded for the compound COc1ccc([C@H]2CC[C@H](CN(c3cccc(-c4cc(C)on4)c3)C(=O)[C@H]3CC[C@H](O)CC3)CC2)cc1C [Compound 9.08] ?
≤ 500 nM

Which EC50 reading was recorded for the compound COc1ccc([C@H]2CC[C@H](CN(c3cccc(-c4cncc(C(F)(F)F)c4)c3)C(=O)[C@H]3CC[C@H](O)CC3)CC2)cc1C [Compound 1.05] ?
≥ 1000 nM

###

target: UniProt Q96RI1
assay procedure: In Vitro FXR Assay (TK): hFXR/hRXR TK-ECRE-luc reporter in transfected CV-1 cells
test conditions: CV-1 cells transfected with hFXR, hRXR, 18 hrs incubation, luminescence, maximum efficacy <25% of Fexarmine control also classified as ‘+’
measure: EC50

| compound structure | EC50 |
| --- | --- |
| COc1ccc([C@H]2CC[C@H](CN(c3cccc(-c4cnc(C5CC5)o4)c3)C(=O)[C@H]3CC[C@H](O)CC3)CC2)cc1C | ≤ 500 nM |
| COc1ccc([C@H]2CC[C@H](CN(c3cc(-c4coc(C(C)C)n4)ccn3)C(=O)[C@H]3CC[C@H](O)CC3)CC2)nc1C | ≤ 500 nM |
| COc1ccc([C@H]2CC[C@H](CN(c3cccc(C#Cc4ncn(C)n4)c3)C(=O)[C@H]3CC[C@H](O)CC3)CC2)cc1C | ≤ 500 nM |
| COc1ccc([C@H]2CC[C@H](CN(c3cccc(-c4cnn(C)n4)c3)C(=O)[C@H]3CC[C@H](O)CC3)CC2)cc1C | ≥ 1000 nM |
| COc1ccc([C@H]2CC[C@H](CN(c3cccc(-c4cnc(N(C)C)cn4)c3)C(=O)[C@H]3CC[C@H](O)CC3)CC2)cc1C | ≤ 500 nM |
| COc1ccc([C@H]2CC[C@H](CN(c3cccc(-c4coc(C(C)C)n4)c3)C(=O)[C@H]3CC[C@H](O)CC3)CC2)nc1C | ≤ 500 nM |
| COc1ccc(-c2cccc(N(C[C@H]3CC[C@H](c4ccc(OC)c(C)c4)CC3)C(=O)[C@H]3CC[C@H](O)CC3)c2)cc1C | 500 to 1000 nM |
| COc1ccc([C@H]2CC[C@H](CN(c3cccc(C#Cc4cn(C)nn4)c3)C(=O)[C@H]3CC[C@H](O)CC3)CC2)cc1C | ≤ 500 nM |

Which EC50 reading was recorded for the molecule CN(C)c1ccc([C@H]2CC[C@H](CN(c3cccc(-c4coc(C5CC5)n4)c3)C(=O)[C@H]3CC[C@H](O)CC3)CC2)cn1 ?
≤ 500 nM

Which EC50 reading was recorded for the molecule COc1ccc([C@H]2CC[C@H](CN(c3cccc(-c4ncco4)c3)C(=O)[C@H]3CC[C@H](O)CC3)CC2)cc1C ?
≥ 1000 nM

Which EC50 reading was recorded for the molecule COc1ncc([C@H]2CC[C@H](CN(c3cc(-c4coc(C5CC5)n4)ccn3)C(=O)[C@H]3CC[C@H](O)CC3)CC2)cc1Cl ?
≤ 500 nM

Which EC50 reading was recorded for the molecule COc1ccc([C@H]2CC[C@H](CN(c3cccc(-c4cnc(N(C)C)nc4)c3)C(=O)[C@H]3CC[C@H](O)CC3)CC2)cc1C ?
≤ 500 nM

Which EC50 reading was recorded for the molecule CN(C)c1ccc(C23CCC(CN(c4cccc(-c5coc(C6CC6)n5)c4)C(=O)[C@H]4CC[C@H](O)CC4)(CC2)CC3)cn1 ?
≤ 500 nM

Which EC50 reading was recorded for the molecule COc1ccc([C@H]2CC[C@H](CN(c3cccc(-c4noc(C)n4)c3)C(=O)[C@H]3CC[C@H](O)CC3)CC2)cc1C ?
500 to 1000 nM

###

target: hFXR (Homo sapiens)
assay procedure: In Vitro FXR Assay (TK): hFXR/hRXR TK-ECRE-luc reporter in transfected CV-1 cells
test conditions: CV-1 cells transfected with hFXR, hRXR, 18 hrs incubation, luminescence, maximum efficacy <25% of Fexarmine control also classified as ‘+’
pEC50: −log10 of the molar value.
The following compounds are listed with their measured pEC50 values.

Which pEC50 reading was recorded for the compound COc1ccc([C@H]2CC[C@H](CN(c3cccc(C#Cc4cnn(C)n4)c3)C(=O)[C@H]3CC[C@H](O)CC3)CC2)cc1C [Compound 12.01] ?
≥ 6.30

Which pEC50 reading was recorded for the compound COc1ccc([C@H]2CC[C@H](CN(c3cccc(-c4coc(C(C)C)n4)c3)C(=O)[C@H]3CC[C@H](O)CC3)CC2)nc1C#N [Compound 10.20] ?
≥ 6.30

Which pEC50 reading was recorded for the compound COc1ccc([C@H]2CC[C@H](CN(c3cccc(-n4cnc(C)n4)c3)C(=O)[C@H]3CC[C@H](O)CC3)CC2)cc1C [Compound 7] ?
6.00 to 6.30

Which pEC50 reading was recorded for the compound COc1ccc([C@H]2CC[C@H](CN(c3cccc(-n4ncc(C)n4)c3)C(=O)[C@H]3CC[C@H](O)CC3)CC2)cc1C [Compound 9.10] ?
≤ 6.00

Which pEC50 reading was recorded for the compound COc1cnc([C@H]2CC[C@H](CN(c3cccc(-c4coc(C5CC5)n4)c3)C(=O)[C@H]3CC[C@H](O)CC3)CC2)cc1C [Compound 10.16] ?
6.00 to 6.30

Which pEC50 reading was recorded for the compound COc1ccc([C@H]2CC[C@H](CN(c3cc(-c4coc(C(C)C)n4)ccn3)C(=O)[C@H]3CC[C@H](O)CC3)CC2)cc1C [Compound 10.13] ?
≥ 6.30

###

target: hFXR (Homo sapiens)
Sequence (Q96RI1 1-486): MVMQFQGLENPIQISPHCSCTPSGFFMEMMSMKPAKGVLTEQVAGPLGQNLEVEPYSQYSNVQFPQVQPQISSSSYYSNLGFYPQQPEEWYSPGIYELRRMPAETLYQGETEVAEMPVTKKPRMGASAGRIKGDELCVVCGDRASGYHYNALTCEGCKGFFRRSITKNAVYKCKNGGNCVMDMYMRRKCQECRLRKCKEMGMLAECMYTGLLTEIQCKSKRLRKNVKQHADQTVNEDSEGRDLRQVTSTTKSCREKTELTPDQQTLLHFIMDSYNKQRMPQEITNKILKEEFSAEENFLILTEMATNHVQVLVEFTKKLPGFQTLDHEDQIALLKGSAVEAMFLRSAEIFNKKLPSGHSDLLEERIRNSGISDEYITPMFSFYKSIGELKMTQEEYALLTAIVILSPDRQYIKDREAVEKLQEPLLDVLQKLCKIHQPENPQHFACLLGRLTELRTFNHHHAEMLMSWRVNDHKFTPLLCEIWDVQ
Sequence (P19793 1-462 partner): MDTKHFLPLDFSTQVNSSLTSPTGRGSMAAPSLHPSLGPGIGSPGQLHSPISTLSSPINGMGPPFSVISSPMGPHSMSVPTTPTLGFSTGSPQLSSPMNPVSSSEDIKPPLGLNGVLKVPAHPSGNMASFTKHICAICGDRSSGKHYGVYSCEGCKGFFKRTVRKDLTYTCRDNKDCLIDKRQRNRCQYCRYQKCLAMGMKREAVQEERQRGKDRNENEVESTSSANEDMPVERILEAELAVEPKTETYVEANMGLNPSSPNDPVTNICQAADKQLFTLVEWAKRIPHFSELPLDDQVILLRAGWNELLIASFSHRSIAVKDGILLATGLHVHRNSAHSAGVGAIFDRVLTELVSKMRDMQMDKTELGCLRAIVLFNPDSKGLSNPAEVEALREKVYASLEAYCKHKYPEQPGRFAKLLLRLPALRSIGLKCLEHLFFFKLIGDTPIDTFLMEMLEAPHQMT
assay procedure: In Vitro FXR Assay (TK): hFXR/hRXR TK-ECRE-luc reporter in transfected CV-1 cells
test conditions: CV-1 cells transfected with hFXR, hRXR, 18 hrs incubation, luminescence, maximum efficacy <25% of Fexarmine control also classified as ‘+’
pEC50: −log10 of the molar value.
measure: pEC50

Which pEC50 reading was recorded for the molecule CCc1nc(-c2ccnc(N(C[C@H]3CC[C@H](c4ccc(OC)c(C)n4)CC3)C(=O)[C@H]3CC[C@H](O)CC3)c2)co1 ?
≥ 6.30

Which pEC50 reading was recorded for the molecule COc1ccc([C@H]2CC[C@H](CN(c3cccc(-c4cc(C5CC5)on4)c3)C(=O)[C@H]3CC[C@H](O)CC3)CC2)cc1C ?
≥ 6.30

Which pEC50 reading was recorded for the molecule COc1cnc(-c2cccc(N(C[C@H]3CC[C@H](c4ccc(OC)c(C)c4)CC3)C(=O)[C@H]3CC[C@H](O)CC3)c2)cn1 ?
≥ 6.30
